Every entry's value here was drawn from patent US20250188078A1.

System: UV-induced CUL4-dependent DDB2 degradation in MEF-F-DDB2 cells
protocol_text: Cell-based assay for inhibition of UV-induced CUL4-dependent DDB2 degradation; note: test concentration or dose not given here
Design: key: (+) means that the normalized DDB2/α-tubulin ratio is higher in the compound treated sample than DMSO treated sample; (−) means that no change happens between compound treated sample with control sample
experimental_context: DDB2/α-tubulin by Western blot
parameter_measured: Degradation Inhibition (inhibition of UV-induced DDB2 degradation)

[[record]]
compound = "CS(=O)(=O)NC(=O)c1cc2c([nH]c3ccccc32)c(-c2ccc(S(C)(=O)=O)cc2)n1 [PA55]"
system_tested = "UV-induced CUL4-dependent DDB2 degradation in MEF-F-DDB2 cells"
meas_value = "−"

[[record]]
compound = "CN(c1ccc(-c2nc(C(=O)O)cc3c2[nH]c2cc(F)ccc23)cc1)S(=O)(=O)c1ccc(C#N)cc1 [PA1-13A-2]"
system_tested = "UV-induced CUL4-dependent DDB2 degradation in MEF-F-DDB2 cells"
meas_value = "−"

[[record]]
compound = "COc1ccc(S(=O)(=O)N(C)c2ccc(-c3nc(C(=O)O)cc4c3[nH]c3ccc(F)cc34)cc2)cc1 [PA2-2]"
system_tested = "UV-induced CUL4-dependent DDB2 degradation in MEF-F-DDB2 cells"
meas_value = "−"

[[record]]
compound = "CS(=O)(=O)Nc1ccc(-c2nc(C(=O)O)cc3c2[nH]c2ccccc23)cc1 [PA48]"
system_tested = "UV-induced CUL4-dependent DDB2 degradation in MEF-F-DDB2 cells"
meas_value = "+"


Next compound, Degradation Inhibition (inhibition of UV-induced DDB2 degradation) to be filled in.
Exercise: Find the recorded Degradation Inhibition (inhibition of UV-induced DDB2 degradation) belonging to O=C(O)c1cc2c([nH]c3cc(F)ccc32)c(-c2ccc(OCc3ccccn3)cc2)n1 [PA1-11H] and report it.
Solution: −

* * *

system_tested: UniProt Q16531
protocol_text: Surface Plasmon Resonance (SPR) binding to DDB1-BPB
experimental_context: DDB1-BPB immobilized
pKd: −log10 of the molar value.
parameter_measured: pKd

Before answering, review these 3 worked examples.
[[record]]
compound = "Cc1ccc2[nH]c3c(-c4ccc(S(C)(=O)=O)cc4)nc(C(=O)O)cc3c2c1 [PA72]"
meas_value = 5.34

[[record]]
compound = "CS(=O)(=O)c1ccc(-c2nc(C(=O)O)cc3c2[nH]c2ccccc23)cc1 [PA35]"
meas_value = 5.25

[[record]]
compound = "CN(c1ccc(-c2nc(C(=O)O)cc3c2[nH]c2cccc(F)c23)cc1)S(=O)(=O)c1ccccc1 [PA99]"
meas_value = 5.67


[I] CS(=O)(=O)N(Cc1ccccc1)c1ccc(-c2nc(C(=O)O)cc3c2[nH]c2ccccc23)cc1 [PA76]
[II] O=C(O)c1cc2c([nH]c3ccccc32)c(-c2ccc(NCc3ccc(F)cc3)cc2)n1 [PA68]
[III] CS(=O)(=O)c1ccc(-c2nc(C(=O)O)cc3c2[nH]c2ccc(O)cc23)cc1 [PA73]
Exercise: Falling order of pKd, please. API: response body holds the labels in the requested order.
Solution: I, III, II
(I: 5.34, III: 5.13, II: 4.88)

* * *

system_tested: CUL4A-DDB1-BPB interaction (Homo sapiens (Human))
Sequence (Q16531 403-706): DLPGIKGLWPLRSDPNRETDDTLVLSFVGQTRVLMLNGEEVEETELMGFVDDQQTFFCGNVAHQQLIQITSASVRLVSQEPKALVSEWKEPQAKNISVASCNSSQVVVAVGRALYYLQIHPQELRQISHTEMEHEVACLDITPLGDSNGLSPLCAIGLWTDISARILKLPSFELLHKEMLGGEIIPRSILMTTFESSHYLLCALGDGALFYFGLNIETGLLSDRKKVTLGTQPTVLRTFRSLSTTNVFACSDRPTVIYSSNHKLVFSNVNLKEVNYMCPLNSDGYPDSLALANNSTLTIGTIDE
protocol_text: AlphaLISA in vitro binding assay, CUL4A and DDB1-BPB binding
experimental_context: inhibition of CUL4A and DDB1-BPB binding
parameter_measured: IC50 (nM)

[[record]]
compound = "CN(c1ccc(-c2nc(C(=O)O)cc3c2[nH]c2cc(F)cc(F)c23)cc1)S(=O)(=O)c1ccccc1"
parameter_measured = "IC50"
meas_value = 220


[1] O=C(O)c1cc2c([nH]c3ccccc32)c(-c2ccc(SCc3ccccc3)cc2)n1
[2] CS(=O)(=O)Oc1ccc(-c2nc(C(=O)O)cc3c2[nH]c2ccccc23)cc1
Exercise: Given 1 and 2 , report the one with the higher recorded IC50. Field: selected label. Fill in the label of the entry you choose.
Solution: 1
